Data provenance is PubChem BioAssay (NCI).

- Test system: NCI-H522 lung
- ASSAY_INFO: NCI tumour cell line growth inhibition, 48 h
OUTCOME_MEASURE: TGI

N[C@H](C(=O)O)[C@H](Cl)CC(=O)O :: > 100 µM
COc1ccc(NC(=O)/C(CC2=Nc3ccc([N+](=O)[O-])cc3NC2O)=N\NC(=O)C[N+](C)(C)C)c(OC)c1 (centres undefined) :: > 100 µM
CC1(C)CC(=O)c2c(nc3ccc4ccccc4c3c2-c2ccc(NC(=O)CCC(=O)Nc3ccc(-c4c5c(nc6ccc7ccccc7c46)CC(C)(C)CC5=O)cc3)cc2)C1 :: > 100 µM
S=c1[nH]c(=S)c2cc(Sc3ccc4[nH]c(=S)[nH]c(=S)c4c3)ccc2[nH]1 :: > 100 µM
CCC1C(c2cc(OC)c(OC)c(OC)c2)c2cc3c(cc2OC1N1CCOCC1)OCO3 (centres undefined) :: 21.8 µM

IN: Name the reported TGI value associated with the compound "NCc1ccccc1C1CSCSC1"
OUT: > 100 µM

IN: Quick check: TGI of CCCCOC(=O)C(O)Cc1ccoc1 (centres undefined) ?
OUT: > 100 µM

IN: Need TGI, item "C=CC[C@H]1[C@H](O[Si](C)(C)C(C)(C)C)C=CC(=O)[C@@H]1CC(=O)N(Cc1ccccc1)Cc1ccccc1"
OUT: > 100 µM

IN: Reported TGI for COc1cc(C2c3cc4c(cc3[C@@H](Nc3cccc(C(C)=O)c3)C3COC(=O)[C@H]23)OCO4)cc(OC)c1O (some centres undefined) : what is it?
OUT: 5.77 µM

* * *

- Tested on: PC-3 prostate
- ASSAY_INFO: NCI tumour cell line growth inhibition, 48 h
Measured TGI accompanies every entry in the list below.

Use the examples below as a reference point.
C#C[C@]1(O)CC[C@H]2[C@@H]3CCc4cc(OC(=O)c5cccc6cc7ccccc7nc56)ccc4[C@H]3CC[C@@]21C :: > 100 µM
COc1ccc(-c2cncn2-c2ccc(OC)cc2)cc1 :: > 100 µM

Turning now to a further compound:
IN: Name the recorded TGI for "Cc1ccc(S(N)(=O)=O)cc1" .
OUT: > 1000 µM

* * *

Consider the following molecules and their measured TGI readings.
- Tested on: SR leukemia
- ASSAY_INFO: NCI tumour cell line growth inhibition, 48 h

Please review the following examples before continuing.
CC(C)C1CC(O)O[C@@H]([C@@H](C)[C@H]2CC(=O)[C@@H]3[C@@H]4[C@@H](O)[C@H](O)[C@H]5[C@@H](O)[C@H](O)CC[C@]5(C)[C@H]4CC[C@]23C)C1 (stereo partly specified) :: > 100 µM
COC(=O)CNC(=O)[C@@H](OC)[C@@H]1Cc2cc3cc(OC4CC(OC5CC(O)C(O)C(C)O5)C(O)C(C)O4)c(C)c(O)c3c(O)c2C(=O)[C@H]1OC1CC(OC2CC(OC3CC(C)(O)C(O)C(C)O3)C(O)C(C)O2)C(O)C(C)O1 (stereo partly specified) :: > 50 µM
Fc1ccc2[nH]c3c(NCCCN4CCOCC4)ncnc3c2c1 :: > 100 µM
C1=C\CCCCN2C[C@H]3CCCC/C=C\CCCCN4CC[C@@H]([C@H](CCCCCC/1)C4)[C@H](C3)C2 :: > 19.8 µM

IN: For CC(C)NC(=O)OCCS(=O)c1c(Cl)c(Cl)nn1C (stereo unspecified) , what is its reported TGI?
OUT: > 100 µM

IN: Can you look up the measured TGI of "CC(C)CCn1c(=O)c2c(=O)[nH][nH]c2c2ccccc21" for me?
OUT: > 100 µM
